- TEST_SYSTEM: FGFR2 (Homo sapiens (Human))
- Sequence (P21802 22-821): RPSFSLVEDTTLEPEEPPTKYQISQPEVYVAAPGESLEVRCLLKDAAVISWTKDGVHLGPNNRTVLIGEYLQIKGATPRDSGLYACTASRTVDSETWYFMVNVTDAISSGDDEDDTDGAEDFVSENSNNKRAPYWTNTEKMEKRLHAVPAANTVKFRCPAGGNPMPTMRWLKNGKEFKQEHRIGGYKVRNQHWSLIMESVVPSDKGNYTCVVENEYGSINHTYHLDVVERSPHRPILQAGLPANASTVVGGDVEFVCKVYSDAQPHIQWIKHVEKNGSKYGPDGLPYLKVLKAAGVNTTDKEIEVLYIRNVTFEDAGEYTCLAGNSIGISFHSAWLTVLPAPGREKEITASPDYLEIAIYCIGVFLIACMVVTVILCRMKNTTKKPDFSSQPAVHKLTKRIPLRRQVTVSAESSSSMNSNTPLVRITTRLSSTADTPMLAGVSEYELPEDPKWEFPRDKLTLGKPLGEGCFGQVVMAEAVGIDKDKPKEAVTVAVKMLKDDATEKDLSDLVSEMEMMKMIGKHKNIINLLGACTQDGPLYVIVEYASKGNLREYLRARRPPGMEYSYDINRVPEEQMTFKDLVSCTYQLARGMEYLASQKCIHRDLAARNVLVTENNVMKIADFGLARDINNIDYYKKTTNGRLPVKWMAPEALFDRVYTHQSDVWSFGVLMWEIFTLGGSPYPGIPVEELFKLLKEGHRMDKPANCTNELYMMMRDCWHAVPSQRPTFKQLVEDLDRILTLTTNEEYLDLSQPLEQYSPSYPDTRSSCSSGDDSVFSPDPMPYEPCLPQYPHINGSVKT
- METHOD_NOTES: Kinase assay, binding constants (Kd), kinase-tagged T7 phage, qPCR

COMPOUND	TEST_SYSTEM	Kd
Cc1cnnc(C)c1[C@H](C)Oc1ccc2[nH]nc(-c3ccc(N4CC5(C4)CN(S(C)(=O)=O)C5)nc3)c2c1	FGFR2 (Homo sapiens (Human))	100 to 300 nM
CCS(=O)(=O)N1CC2(CN(c3ncc(-c4n[nH]c5ccc(O[C@H](C)c6c(Cl)cncc6Cl)cc45)cn3)C2)C1	FGFR2 (Homo sapiens (Human))	20 to 100 nM
C[C@H](Oc1ccc2[nH]nc(-c3ccc(N4CC5(C4)CN(S(C)(=O)=O)C5)nc3)c2c1)c1c(Cl)cncc1Cl	FGFR2 (Homo sapiens (Human))	100 to 300 nM
C[C@@H](Oc1ccc2[nH]nc(-c3cnc(N4CCN(C(=O)N5CCN(C)CC5)CC4)c(F)c3)c2c1)c1c(Cl)cncc1Cl	FGFR2 (Homo sapiens (Human))	1 to 20 nM
C[C@@H](Oc1ccc2[nH]nc(-c3ccc(N4CC5(CCNCC5)C4)nc3)c2c1)c1c(Cl)cncc1Cl	FGFR2 (Homo sapiens (Human))	1 to 20 nM
Cc1ncc(Cl)c([C@@H](C)Oc2ccc3[nH]nc(-c4ccc(N5CC6(CCC6)C5)nc4)c3c2)c1Cl	FGFR2 (Homo sapiens (Human))	100 to 300 nM
C[C@@H](Oc1ccc2[nH]nc(-c3ccc(N4CC(C)(N)C4)nc3)c2c1)c1c(Cl)cncc1Cl	FGFR2 (Homo sapiens (Human))	1 to 20 nM
C[C@@H](Oc1ccc2[nH]nc(-c3cnn(C4CCN(C5COC5)CC4)c3)c2c1)c1cc(F)cc(F)c1	FGFR2 (Homo sapiens (Human))	20 to 100 nM
Cc1ncc(Cl)c([C@@H](C)Oc2cc3c(-c4ccc(N5CC6(C5)CN(S(C)(=O)=O)C6)nc4)n[nH]c3cc2F)c1Cl	FGFR2 (Homo sapiens (Human))	1 to 20 nM
C[C@@H](Oc1ccc2[nH]nc(-c3cnc(N4CCC5(CCC(=O)N5)CC4)nc3)c2c1)c1c(Cl)cncc1Cl	FGFR2 (Homo sapiens (Human))	20 to 100 nM
C[C@@H](Oc1ccc2[nH]nc(-c3cnc(N4CC(C(F)(F)F)C4)c(C#N)c3)c2c1)c1c(Cl)cncc1Cl	FGFR2 (Homo sapiens (Human))	> 300 nM
COc1cc2[nH]nc(-c3cnc(N4CC5(CCS(=O)(=O)C5)C4)c(C#N)c3)c2cc1O[C@H](C)c1c(Cl)cncc1Cl	FGFR2 (Homo sapiens (Human))	1 to 20 nM
COc1cc2[nH]nc(-c3cnc(N4CC[C@@H]4C)c(F)c3)c2cc1O[C@H](C)c1c(Cl)cncc1Cl	FGFR2 (Homo sapiens (Human))	20 to 100 nM
COc1cc2[nH]nc(-c3ccc(N4CCN5C(=O)NCC5C4)nc3)c2cc1O[C@H](C)c1c(C)cnnc1C (stereo partly drawn)	FGFR2 (Homo sapiens (Human))	1 to 20 nM
C[C@@H](Oc1ccc2[nH]nc(-c3ccc(N4CCC5(CCN(C)C5)CC4)nc3)c2c1)c1c(Cl)cncc1Cl	FGFR2 (Homo sapiens (Human))	1 to 20 nM
CC(Oc1ccc2[nH]nc(-c3cnn(C4CCN(C5COC5)CC4)c3)c2c1)c1c(Cl)ccnc1Cl (stereo not drawn)	FGFR2 (Homo sapiens (Human))	1 to 20 nM
C[C@@H](Oc1ccc2[nH]nc(-c3ccc(N4CCS(=O)(=O)CC4)nc3)c2c1)c1c(Cl)cncc1Cl	FGFR2 (Homo sapiens (Human))	1 to 20 nM
C[C@@H](Oc1cc2c(-c3cnc(N4CC5(C4)CN(S(C)(=O)=O)C5)c(F)c3)n[nH]c2cc1F)c1c(Cl)cncc1Cl	FGFR2 (Homo sapiens (Human))	1 to 20 nM
Cc1cc(-c2n[nH]c3ccc(O[C@H](C)c4c(Cl)cncc4Cl)cc23)cnc1N1CCOCC1	FGFR2 (Homo sapiens (Human))	20 to 100 nM
C[C@@H](Oc1ccc2[nH]nc(-c3ccc(N4CC5(CCNCC5)OC4=O)nc3)c2c1)c1c(Cl)cncc1Cl	FGFR2 (Homo sapiens (Human))	1 to 20 nM
C[C@@H](Oc1ccc2[nH]nc(-c3ccc(N4CCN5C[C@H](O)C[C@H]5C4)nc3)c2c1)c1c(Cl)cncc1Cl	FGFR2 (Homo sapiens (Human))	1 to 20 nM
C[C@@H](Oc1ccc2[nH]nc(-c3cnn(C4CCN(CCO)CC4)c3)c2c1)c1c(Cl)cncc1Cl	FGFR2 (Homo sapiens (Human))	1 to 20 nM
C[C@@H](Oc1ccc2[nH]nc(-c3cnc(N4CC5(CCNCC5)C4)nc3)c2c1)c1c(Cl)cncc1Cl	FGFR2 (Homo sapiens (Human))	1 to 20 nM
Cc1cnnc(C)c1[C@@H](C)Oc1ccc2[nH]nc(-c3cnc(N4CC5CC(C4)N5CC(C)(C)O)c(C#N)c3)c2c1	FGFR2 (Homo sapiens (Human))	1 to 20 nM
C[C@@H](Oc1ccc2[nH]nc(-c3cnc(N4CCCNCC4)nc3)c2c1)c1c(Cl)cncc1Cl	FGFR2 (Homo sapiens (Human))	20 to 100 nM
C[C@@H](Oc1ccc2[nH]nc(-c3cnc(N4CC5(C4)CN(S(C)(=O)=O)C5)c(CN(C)C)c3)c2c1)c1c(Cl)cncc1Cl	FGFR2 (Homo sapiens (Human))	> 300 nM
C[C@@H](Oc1ccc2[nH]nc(-c3cnc(N4CC5(CCN(S(C)(=O)=O)C5)C4)nc3)c2c1)c1c(Cl)cncc1Cl	FGFR2 (Homo sapiens (Human))	20 to 100 nM
